Target Under Test: T1, AAV8 (adeno-associated virus 8, Assembled 60-mer capsid of VP1/VP2/VP3 (nested products of one cap gene), amine-coupled to a CM5 chip; the letters give one VP1 subunit only.)
T1 construct: also called adeno-associated virus serotype 8
T1 chain: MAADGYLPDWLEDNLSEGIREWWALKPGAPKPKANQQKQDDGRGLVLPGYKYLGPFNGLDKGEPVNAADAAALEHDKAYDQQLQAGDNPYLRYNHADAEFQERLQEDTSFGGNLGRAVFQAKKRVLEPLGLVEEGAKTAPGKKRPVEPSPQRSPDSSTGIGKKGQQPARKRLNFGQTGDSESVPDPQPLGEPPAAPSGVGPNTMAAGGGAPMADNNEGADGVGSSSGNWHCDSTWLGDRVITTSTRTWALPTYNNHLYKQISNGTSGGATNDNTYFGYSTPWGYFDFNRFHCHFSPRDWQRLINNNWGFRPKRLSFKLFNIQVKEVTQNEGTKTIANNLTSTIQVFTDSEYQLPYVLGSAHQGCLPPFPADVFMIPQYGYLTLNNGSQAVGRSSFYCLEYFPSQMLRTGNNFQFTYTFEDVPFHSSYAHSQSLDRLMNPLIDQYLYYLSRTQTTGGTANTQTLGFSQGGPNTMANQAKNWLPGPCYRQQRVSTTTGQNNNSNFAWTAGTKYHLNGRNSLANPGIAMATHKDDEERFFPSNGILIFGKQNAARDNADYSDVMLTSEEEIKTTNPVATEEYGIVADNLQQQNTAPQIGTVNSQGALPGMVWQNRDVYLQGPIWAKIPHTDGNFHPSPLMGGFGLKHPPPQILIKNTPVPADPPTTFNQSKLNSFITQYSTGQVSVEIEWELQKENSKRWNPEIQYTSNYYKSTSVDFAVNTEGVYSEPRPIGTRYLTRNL
Method Notes: SPR, AAV amine-coupled to CM5 chip
Test Readout: kon (M⁻¹ s⁻¹)
Numeric answer only, unit M⁻¹ s⁻¹ assumed.

So for A4-C1 (VHH) VQLQESGGGLVQPGGSLRLSCAASGSGFSINTMGWYRQAPGKQRELVATVTRDGSTNYADFVKGRFTISRDNAKNTVYLQMNSLRPEDTAVYYCHLDEVRESSWTTSNLWGQGTQVTVSSGGGGSGGGGSGGGGSVQLQESGGGLVQPGGSLRLSCAASGSGFSINTMGWYRQAPGKQRELVATVTRDGSTNYADFVKGRFTISRDNAKNTVYLQMNSLRPEDTAVYYCHLDEVRESSWTTSNLWGQGTQVTVSSGGGGSGGGGSGGGGSVQLQESGGGLVQPGGSLRLSCAASGSGFSINTMGWYRQAPGKQRELVATVTRDGSTNYADFVKGRFTISRDNAKNTVYLQMNSLRPEDTAVYYCHLDEVRESSWTTSNLWGQGTQVTVSS , the logged kon turned out to be 178000
